subject of test: KCNQ2 (Homo sapiens, UniProt O43526, DEL417-446)
assay procedure: Blockade of KCNQ2 channels expressed in Xenopus oocytes
condition description: oocytes; mean±s.e.m.
pIC50: −log10 of the molar value.
Here, each record is paired with measured pIC50 data.
parameter measured: pIC50

[[record]]
compound = "O=C1c2ccccc2C(Cc2ccncc2)(Cc2ccncc2)c2ccccc21 [XE991]"
numeric_readout = 6.15

[[record]]
compound = "O=C1N(c2ccccc2)c2ccccc2C1(Cc1ccncc1)Cc1ccncc1 [Linopirdine]"
numeric_readout = 5.32


* * *

Here, each record is paired with measured pIC50 data.
subject of test: erg3 (Rattus norvegicus)
Sequence (O54852 whole entry): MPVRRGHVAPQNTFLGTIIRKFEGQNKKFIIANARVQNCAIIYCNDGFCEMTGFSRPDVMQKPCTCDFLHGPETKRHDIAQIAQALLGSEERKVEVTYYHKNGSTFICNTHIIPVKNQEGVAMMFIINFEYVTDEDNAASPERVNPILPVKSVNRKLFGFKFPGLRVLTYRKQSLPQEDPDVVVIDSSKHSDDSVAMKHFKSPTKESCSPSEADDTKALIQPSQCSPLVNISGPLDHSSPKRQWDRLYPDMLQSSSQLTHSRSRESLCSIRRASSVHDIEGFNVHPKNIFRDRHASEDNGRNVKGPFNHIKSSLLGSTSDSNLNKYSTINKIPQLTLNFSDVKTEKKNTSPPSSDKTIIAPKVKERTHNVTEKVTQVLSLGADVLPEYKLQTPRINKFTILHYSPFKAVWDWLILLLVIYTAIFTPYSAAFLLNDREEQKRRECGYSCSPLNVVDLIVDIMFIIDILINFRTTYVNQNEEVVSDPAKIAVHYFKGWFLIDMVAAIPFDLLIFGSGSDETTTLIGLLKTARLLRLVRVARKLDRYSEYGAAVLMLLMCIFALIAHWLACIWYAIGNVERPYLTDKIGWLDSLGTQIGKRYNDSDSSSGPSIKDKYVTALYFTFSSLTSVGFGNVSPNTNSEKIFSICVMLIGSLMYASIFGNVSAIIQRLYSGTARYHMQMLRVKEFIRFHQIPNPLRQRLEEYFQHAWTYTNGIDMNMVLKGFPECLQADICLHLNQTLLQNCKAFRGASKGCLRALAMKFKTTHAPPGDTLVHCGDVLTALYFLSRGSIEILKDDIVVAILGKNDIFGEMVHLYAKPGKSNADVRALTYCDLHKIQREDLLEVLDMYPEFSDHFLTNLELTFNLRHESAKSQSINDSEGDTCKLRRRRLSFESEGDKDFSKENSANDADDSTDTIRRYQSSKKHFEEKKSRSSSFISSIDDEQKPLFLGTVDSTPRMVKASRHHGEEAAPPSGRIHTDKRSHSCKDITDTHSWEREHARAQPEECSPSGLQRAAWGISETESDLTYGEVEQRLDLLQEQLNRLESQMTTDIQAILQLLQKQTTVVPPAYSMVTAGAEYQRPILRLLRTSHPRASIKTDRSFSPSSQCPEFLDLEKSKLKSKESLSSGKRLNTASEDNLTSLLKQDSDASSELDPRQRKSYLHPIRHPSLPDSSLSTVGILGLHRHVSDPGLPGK
assay procedure: Blockade of cloned erg3 channel in oocytes
condition description: mean±s.e.m.
pIC50: −log10 of the molar value.
parameter measured: pIC50

[[record]]
record_smiles = "O=C1N(c2ccccc2)c2ccccc2C1(Cc1ccncc1)Cc1ccncc1"
subject_of_test = "erg3 (Rattus norvegicus)"
comparison_symbol = "="
numeric_readout = 4.07

[[record]]
record_smiles = "O=C1c2ccccc2C(Cc2ccncc2)(Cc2ccncc2)c2ccccc21"
subject_of_test = "erg3 (Rattus norvegicus)"
comparison_symbol = "<"
numeric_readout = 4.00

